Catalogue of pIC50 readings, one per entry.
target-under-test: Dihydrofolate reductase (Homo sapiens, UniProt P00374)
Sequence (P00374 whole entry): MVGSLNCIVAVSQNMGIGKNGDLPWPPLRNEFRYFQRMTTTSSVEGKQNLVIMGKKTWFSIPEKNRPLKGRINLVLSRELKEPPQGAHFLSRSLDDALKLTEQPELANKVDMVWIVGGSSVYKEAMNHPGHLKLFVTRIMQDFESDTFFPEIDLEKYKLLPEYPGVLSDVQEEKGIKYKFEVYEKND
measurement-notes: Inhibition of recombinant human DHFR expressed in Escherichia coli preincubated for 15 mins followed by addition of DHF as substrate and NADPH measured after 60 mins by resazurin/diaphorase coupled assay
pIC50: −log10 of the molar value.

# count of solved cases: 4
{"columns": ["smiles-notation", "measurement-type", "observed-result"],
 "data": [
  ["Nc1ncc(Cn2ccc3c(-c4ccc(C(F)(F)F)cc4)cccc32)c(N)n1", "pIC50", "< 5.00"],
  ["Cc1nc(N)nc(N)c1CN1CCN(c2cccc(-c3ccccc3)c2)CC1", "pIC50", 5.96],
  ["Nc1ncc(N2CCN(c3ccc(Cl)c(Cl)c3)CC2)c(N)n1", "pIC50", 7.04],
  ["Nc1nc2[nH]c(-c3cccc(Cl)c3)cc2c(=O)[nH]1", "pIC50", "< 5.00"]
]}

Problem: Can you look up the measured pIC50 of COc1ccc(-c2c[nH]c3nc(N)nc(OC(C)C)c23)cc1C(F)(F)F for me?
Solution: < 5.00

Problem: Can you look up the measured pIC50 of Cc1nc(N)nc(N)c1C(=O)N1CCN(c2cccc(-c3cccc(C#N)c3)c2)CC1 for me?
Solution: < 5.00

Problem: Can you look up the measured pIC50 of Nc1nc(N)c(-c2c[nH]c3ccccc23)c(C2CC2)n1 for me?
Solution: 5.60

Problem: Can you look up the measured pIC50 of Cc1nc(N)nc(N)c1C(=O)N1CCN(c2cc(Cl)ccc2-c2ccccn2)CC1 for me?
Solution: < 5.00

Problem: Can you look up the measured pIC50 of Cn1c(-c2cccc(Cl)c2)cc2c(N)nc(N)nc21 for me?
Solution: < 5.00

Problem: Can you look up the measured pIC50 of Nc1ncc(CN2CCN(c3cc(Cl)ccc3OCc3cccc(C(F)(F)F)c3)CC2)c(N)n1 for me?
Solution: < 4.12
